The reported numbers originate from patent US10363251B2.

- test_system: TLR9 (Homo sapiens, UniProt Q9NR96)
- Construct: expressed in transfected cells; host or cells: HEK293
- Sequence (Q9NR96 26-1032): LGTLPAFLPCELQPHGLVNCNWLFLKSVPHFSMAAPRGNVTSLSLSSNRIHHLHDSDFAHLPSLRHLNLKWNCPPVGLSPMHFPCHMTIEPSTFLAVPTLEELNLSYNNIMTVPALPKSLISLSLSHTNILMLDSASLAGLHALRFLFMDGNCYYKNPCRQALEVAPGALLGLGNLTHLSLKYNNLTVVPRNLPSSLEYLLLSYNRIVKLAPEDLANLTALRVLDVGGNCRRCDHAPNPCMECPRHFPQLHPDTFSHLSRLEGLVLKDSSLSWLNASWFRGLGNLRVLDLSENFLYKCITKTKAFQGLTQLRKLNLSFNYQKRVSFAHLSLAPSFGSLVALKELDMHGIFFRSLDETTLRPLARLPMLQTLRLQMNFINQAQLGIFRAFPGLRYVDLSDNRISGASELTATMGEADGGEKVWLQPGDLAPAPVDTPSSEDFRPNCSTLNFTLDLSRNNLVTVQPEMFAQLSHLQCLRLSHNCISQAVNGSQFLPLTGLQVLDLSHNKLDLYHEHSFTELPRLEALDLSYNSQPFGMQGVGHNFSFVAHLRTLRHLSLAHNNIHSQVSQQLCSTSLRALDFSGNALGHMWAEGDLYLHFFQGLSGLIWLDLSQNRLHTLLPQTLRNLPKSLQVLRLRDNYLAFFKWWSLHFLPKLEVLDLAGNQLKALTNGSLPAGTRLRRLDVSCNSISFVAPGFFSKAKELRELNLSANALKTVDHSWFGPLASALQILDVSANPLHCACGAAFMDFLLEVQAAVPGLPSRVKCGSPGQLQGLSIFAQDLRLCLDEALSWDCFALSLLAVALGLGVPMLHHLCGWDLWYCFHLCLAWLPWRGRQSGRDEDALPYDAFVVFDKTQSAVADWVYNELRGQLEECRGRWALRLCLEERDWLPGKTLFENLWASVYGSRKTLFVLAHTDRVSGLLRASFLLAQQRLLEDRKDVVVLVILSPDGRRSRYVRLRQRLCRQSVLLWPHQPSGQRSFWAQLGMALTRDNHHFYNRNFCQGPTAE
- protocol_description: TLR9 screening of (+)-morphinan library, SEAP reporter in HEK293 cells expressing TLR9
- Assay type: cell-based
- cond: HEK293, read-out: % Inhibition (mean), 100 nM; activator ODN2006
Recorded inhibition at 0.1 µM, one value per entry.
measured_attribute: inhibition at 0.1 µM (%)

| molecule | measured_attribute | unit_annotation | reported_measurement |
| --- | --- | --- | --- |
| C=CCN1CC[C@@]23c4c5ccc(OC)c4O[C@@H]2C2(CC[C@@H]3[C@@H]1C5)OCCO2 | inhibition at 0.1 µM | % | -8 |
| COc1cc(C(C)C)c2c3c1O[C@@H]1C(=O)CCC4C(C2)N(CC2CC2)CC[C@]341 (stereo partly shown) | inhibition at 0.1 µM | % | 17 |
| COc1ccc2c3c1O[C@@H]1C(O)CC[C@@H]4[C@H](C2)N(CC2CCC2)CC[C@@]314 (stereo partly shown) | inhibition at 0.1 µM | % | 7 |
| COc1ccc2c3c1O[C@@H]1[C@H](O)CC[C@@H]4[C@H](C2)N(CC2CC2)CC[C@]341 | inhibition at 0.1 µM | % | 6 |
| C=CCN1CC[C@@]23CC(=O)C(OC)C[C@@H]2[C@@H]1Cc1ccc(OC)c(O)c13 (stereo partly shown) | inhibition at 0.1 µM | % | -5 |
| COc1ccc2c3c1O[C@@H]1C(=O)CC[C@]4(O)[C@H](C2)N(C(=O)C2CCC2)CC[C@@]314 | inhibition at 0.1 µM | % | 17 |
| C=CCN1CC[C@@]23c4c5ccc(O)c4O[C@@H]2C(=O)CC[C@]3(OC)[C@@H]1C5 | inhibition at 0.1 µM | % | 21 |
| COc1cc(-c2ccoc2)c2c(c1O)[C@@]13CCN(CC4CC4)C(C2)C1CCC(=O)C3 (stereo partly shown) | inhibition at 0.1 µM | % | 6 |
| COc1ccc2c3c1O[C@@H]1C(=O)CC[C@@H]4[C@H](C2)N(C(=O)c2ccccc2)CC[C@@]314 | inhibition at 0.1 µM | % | 5 |
| COc1ccc2c3c1O[C@@H]1C(=O)CC[C@]4(O)[C@H](C2)N(C(C)=O)CC[C@@]314 | inhibition at 0.1 µM | % | -1 |
| COC(=O)/C=C/c1cc(OC)c(O)c2c1CC1C3CCC(=O)C[C@@]23CCN1CC1CC1 (stereo partly shown) | inhibition at 0.1 µM | % | 17 |
| Oc1ccc2c3c1O[C@@H]1[C@H](O)CC[C@]4(O)[C@H](C2)N(CC2CCC2)CC[C@@]314 | inhibition at 0.1 µM | % | 4 |
| COC1=C[C@@H]2[C@@H]3Cc4ccc(OC)c(O)c4[C@]2(CCN3C)CC1O (stereo partly shown) | inhibition at 0.1 µM | % | 13 |
| COc1cc(Br)c2c3c1OC1C(=O)CC[C@@H]4[C@H](C2)N(C)CC[C@@]314 (stereo partly shown) | inhibition at 0.1 µM | % | 14 |
| [O-][N+]1(CC2CC2)CC[C@@]23c4c5ccc(O)c4O[C@@H]2[C@H](O)CC[C@]3(O)[C@@H]1C5 (stereo partly shown) | inhibition at 0.1 µM | % | 2 |
| COc1cc(Br)c2c(c1OC(C)=O)[C@@]13CCN(CC4CC4)C(C2)C1CCC(=O)C3 (stereo partly shown) | inhibition at 0.1 µM | % | 16 |
| C=CCN1CC[C@@]23c4c5ccc(OC)c4O[C@@H]2C(NC(C)=O)CC[C@@H]3[C@@H]1C5 (stereo partly shown) | inhibition at 0.1 µM | % | 9 |
| COc1ccc2c(c1O)[C@@]13CCN(CC4CC4)C(C2)C1CCC(=O)C3 (stereo partly shown) | inhibition at 0.1 µM | % | 9 |
| C=CCN1CC[C@@]23c4c5ccc(O)c4O[C@@H]2C(=O)CC[C@]3(O)[C@@H]1C5 | inhibition at 0.1 µM | % | 8 |
| COc1ccc2c(c1O)[C@@]13CCN(CC4CCC4)[C@@H](C2)C1CCC(=O)C3 (stereo partly shown) | inhibition at 0.1 µM | % | 25 |
| CN[C@@H]1CC[C@]2(O)[C@@H]3Cc4ccc(O)c5c4[C@]2(CCN3CC2CC2)[C@@H]1O5 | inhibition at 0.1 µM | % | 90 |
| COc1ccc2c(c1O)[C@@]13CCN(C)[C@@H](C2)[C@@]1(O)CCC(=O)C3 | inhibition at 0.1 µM | % | 24 |
| C=CCN1CC[C@@]23c4c5c(-c6ccoc6)cc(OC)c4O[C@@H]2C(=O)CCC3C1C5 (stereo partly shown) | inhibition at 0.1 µM | % | 13 |
| CN(C(=O)/C=C/c1ccoc1)[C@H]1CC[C@]2(O)[C@@H]3Cc4ccc(O)c5c4[C@]2(CCN3CC2CC2)[C@@H]1O5 | inhibition at 0.1 µM | % | 6 |
| COc1ccc2c3c1O[C@@H]1[C@@H]4CCC5(O4)[C@H](C2)N(C)CC[C@@]315 | inhibition at 0.1 µM | % | 13 |
